Item-by-item account of LC retention time
# Procedure text: A: acetonitrile + 0.1% formic acid + 10 mM ammonium formate; B: 5% water + 95% acetonitrile + 0.1% formic acid + 10 mM ammonium formate; gradient (min/%B) 0/10 2/10 22/100 27/100 27.1/10
# Assay setup: stereoisomer not certain
Write down the numeric answer in min and omit the unit.

Consider the worked cases shown below.
INSERT INTO measurements (molecule, measured_attribute, units_text, value_reported) VALUES
  ('O=C(O)CNC(=O)c1cccnc1', 'LC retention time', 'min', 5.19),
  ('NCC(O)CCC(N)C(=O)O (racemic) [DL-5-Hydroxylysine]', 'LC retention time', 'min', 7.93),
  ('CC1=CC(=O)C(C)O1 (stereo unspecified) [2,5-Dimethyl-2,3-dihydrofuran-3-one]', 'LC retention time', 'min', 0.451),
  ('NC(=O)C(N)Cc1c[nH]c2ccccc12 (stereo unspecified)', 'LC retention time', 'min', 3.39),
  ('CNCC(O)c1ccc(O)cc1 (stereo unspecified) [Synephrine]', 'LC retention time', 'min', 3.2);

Entry under review: Nc1ccc(O)cc1 . Reported LC retention time?
0.517

Okay, and CNCCc1ccc(O)cc1 ?
2.53

Okay, and OCC(O)C(O)C(O)CO (stereo unspecified) ?
5.38

Okay, and CC12CCC(=O)C=C1CCC1C2C(O)CC2(C)C1CCC2(O)C(=O)CO (stereo unspecified) [Hydrocortisone] ?
0.479

Okay, and NCCCC(=O)O ?
5.83

Okay, and NC(N)=NCCCC[C@H](N)C(=O)O ?
7.39

Okay, and O=c1ccc2ccccc2o1 ?
0.431

Okay, and CC(CCC(=O)NCC(=O)O)C1CCC2C3CCC4CC(O)CCC4(C)C3CC(O)C12C (stereo unspecified) ?
2.78

Okay, and N[C@H](CO)Cc1cnc[nH]1 ?
7.05

Okay, and CC(=O)Nc1nnc(S(N)(=O)=O)s1 [Acetazolamide] ?
0.529

Okay, and CC(=O)N[C@@H](C)C(=O)O ?
4.36

Okay, and Cc1cn(C2OC(CO)C(O)C2O)c(=O)[nH]c1=O (stereo unspecified) ?
1.78

Okay, and NC(CCC(=O)NC(CS)C(=O)NCC(=O)O)C(=O)O (stereo unspecified) ?
7.03

Okay, and CCN(CC)CC#CCOC(=O)C(O)(c1ccccc1)C1CCCCC1 (stereo unspecified) ?
0.847

Okay, and NCC(=O)CCC(=O)O ?
5.89

Okay, and CC(CCC(=O)NCCS(=O)(=O)O)C1CCC2C3C(O)CC4CC(O)CCC4(C)C3CCC12C (stereo unspecified) ?
2.7
